System: HEK-293T
Test: Multiplex assay against HEK293T
Format: toxicity, cell-based
Details: human, 24 h, 10 µM, compound concentration 10 uM, replicate 2
Endpoint: Population Membrane Permeable-Phenotype (%)
Give the number; % is assumed, so skip it.

Example molecules with recorded Population Membrane Permeable-Phenotype (%):
[[record]]
molecule = "c1ccc(-c2oc3ncnc(NC[C@@H]4CCCO4)c3c2-c2ccccc2)cc1"
quantitative_readout = 16

[[record]]
molecule = "CC(/C=C1\\SC(=S)N(CCCC(=O)Nc2ccc(C(=O)O)c(O)c2)C1=O)=C\\c1ccccc1"
quantitative_readout = 13

[[record]]
molecule = "CN1C(=O)[C@@H](NC(=O)c2cc3ccccc3[nH]2)N=C(c2ccccc2)c2ccccc21 [DEVAZEPIDE]"
quantitative_readout = 15


Here is the next item to consider.
Prompt: Requested field: Population Membrane Permeable-Phenotype (%). Item: CC[C@H](Nc1ncnc2[nH]cnc12)c1nc2cccc(F)c2c(=O)n1-c1ccccc1
Completion: 5

====

molecules and their reported Population Apoptotic (%)
Test system: Fibroblast
Assay: Multiplex assay against human fibroblast
Format: toxicity, cell-based
Conditions: 12 h, 1 µM, compound concentration 1 uM, replicate 2
Kindly report the value followed by its unit.

A selection of reference data follows.
[[record]]
molecule = "Cc1c(Nc2ccc(S(=O)(=O)N3CCN(C)CC3)cc2F)nc2ccc(Nc3cnn(C4CC4)c3)cn2c1=O"
result = "80%"

[[record]]
molecule = "CC(C)[C@H](CO)Nc1nc(Nc2cccc(Cl)c2)c2ncn(C(C)C)c2n1"
result = "50%"

[[record]]
molecule = "CC(Cc1ccc(O)c(O)c1)C(C)Cc1ccc(O)c(O)c1 (centres undefined) [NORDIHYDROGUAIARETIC ACID]"
result = "0%"


We next turn to a different molecule, shown below.
Prompt: Given the molecule CN1C(=O)[C@@H](NC(=O)c2cc3ccccc3[nH]2)N=C(c2ccccc2)c2ccccc21 [DEVAZEPIDE] , what is its reported Population Apoptotic (%)?
Completion: 33%

====

Tested on: U2OS
Assay: Incucyte cell viability with U2OS; also: filed as whole numbers so only -1 and 0 and 1 occur
Assay type: toxicity, cell-based
Conditions: human, 6 h, 10 µM, compound concentration 10 uM, replicate number 2, timepoint 6 hours
# reported Growth Rate; entries follow
Form rule: numeric answer, no unit written next to it.

[[record]]
smiles_record = "CN1CCN(c2ccc(-c3cccc(CN4CCOCC4)c3)cc2NC(=O)c2c[nH]c(=O)cc2C(F)(F)F)CC1"
study_target = "U2OS"
endpoint = "Growth Rate"
quantitative_readout = 0

[[record]]
smiles_record = "CN(c1cc(C(F)(F)F)nc(OCCC(=O)O)n1)c1cccc2c1CCC2"
study_target = "U2OS"
endpoint = "Growth Rate"
quantitative_readout = 0

[[record]]
smiles_record = "O=C(N1CCS(=O)(=O)CC1)N1C[C@H](c2ccc(OC(F)(F)F)cc2)C[C@H](c2nc(C3CC3)no2)C1"
study_target = "U2OS"
endpoint = "Growth Rate"
quantitative_readout = 1


Let us move to another entry and its Growth Rate.
Prompt: Request the reported Growth Rate associated with Cc1cn2cc(CC(=O)N3CCC4(CC3)CN(Cc3ccc(-n5nccn5)cc3Cl)C4)nc2s1
Completion: 0

====

System: Fibroblast
Test: Multiplex assay against human fibroblast
Assay type: toxicity, cell-based
Conditions: 48 h, 1 µM, compound concentration 1 uM, replicate 1
Total Cell Count values, listed per item
// return a plain number; no unit text

Worked cases, answers included:
[[record]]
compound = "CCCc1cc(C)[nH]c(=O)c1CNC(=O)c1cc(-c2ccc(N3CCN(C(C)C)CC3)nc2)cc2c1cnn2C(C)C"
quantitative_readout = 96

[[record]]
compound = "Cc1ccc(S(=O)(=O)NC2c3ccccc3Oc3ccccc32)cc1"
quantitative_readout = 111

[[record]]
compound = "N#CCNC(=O)c1ccc(-c2ccnc(Nc3ccc(N4CCOCC4)cc3)n2)cc1 [MOMELOTINIB]"
quantitative_readout = 129

[[record]]
compound = "Oc1cccc(-c2nc(N3CCOCC3)c3oc4ncccc4c3n2)c1 [PI-103]"
quantitative_readout = 163

[[record]]
compound = "CN(c1cc(C(F)(F)F)nc(OCCC(=O)O)n1)c1cccc2c1CCC2"
quantitative_readout = 147


Prompt: What value of Total Cell Count has been reported for the following compound? CC(/C=C1\SC(=S)N(CCCC(=O)Nc2ccc(C(=O)O)c(O)c2)C1=O)=C\c1ccccc1
Completion: 146

Prompt: What about CCCCN(CC)c1nc(C)nc2c1c(C)cn2-c1c(C)cc(C)cc1C.Cl ?
Completion: 118

Prompt: What do we get for CC(C)C[C@H](NC(=O)[C@H](Cc1ccccc1)NC(=O)CNC(=O)CNC(=O)[C@@H](N)Cc1ccc(O)cc1)C(=O)O [ENKEPHALIN] ?
Completion: 96
